Target: cloned human 5-HT1A receptors (Homo sapiens, UniProt P08908)
Construct: expressed in transfected cells
Sequence (P08908 1-422): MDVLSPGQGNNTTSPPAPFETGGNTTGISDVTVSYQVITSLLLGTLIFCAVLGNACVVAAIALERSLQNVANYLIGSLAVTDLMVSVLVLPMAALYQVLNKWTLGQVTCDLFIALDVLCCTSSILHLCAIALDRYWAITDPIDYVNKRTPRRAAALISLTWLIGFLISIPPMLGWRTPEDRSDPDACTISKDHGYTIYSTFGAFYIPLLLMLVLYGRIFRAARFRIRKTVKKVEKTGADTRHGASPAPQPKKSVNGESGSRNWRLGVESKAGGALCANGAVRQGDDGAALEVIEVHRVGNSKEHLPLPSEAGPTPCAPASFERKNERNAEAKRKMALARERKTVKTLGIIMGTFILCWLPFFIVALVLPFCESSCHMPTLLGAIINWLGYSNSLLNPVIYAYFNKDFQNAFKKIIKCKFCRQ
Assay: 35S-GTPγS binding assay, antagonist activity at 5-HT1A receptors
Format: biochemical
Conditions: reversal of the effects of the standard agonist 8-OHDPAT
Quantity measured: 5-HT1A Function (Imax), maximum inhibitory effect

# Compound, Measured target, Test result
measured = [
    ("Cc1nc2c3c(ccc2[nH]1)OCC(CN1CC=C(c2c[nH]c4ccccc24)CC1)O3 (centres unmarked)", "cloned human 5-HT1A receptors (Homo sapiens, UniProt P08908)", "(100)"),
    ("Cc1nc2ccc3c(c2n1C)OC(CN1CC=C(c2c[nH]c4ccccc24)CC1)CO3 (centres unmarked)", "cloned human 5-HT1A receptors (Homo sapiens, UniProt P08908)", "(100)"),
    ("Fc1ccc2[nH]cc(C3=CCN(CC4COc5ccc6[nH]c(C(F)(F)F)nc6c5O4)CC3)c2c1 (centres unmarked)", "cloned human 5-HT1A receptors (Homo sapiens, UniProt P08908)", "(100)"),
]

* * *

target: cloned human 5-HT1A receptors (Homo sapiens, UniProt P08908); construct: expressed in transfected cells; experiment: 35S-GTPγS binding assay, antagonist activity at 5-HT1A receptors; assay type: biochemical; settings: reversal of the effects of the standard agonist 8-OHDPAT, membranes with cloned human 5-HT1A receptors, read-out: 5-HT1A Function IC50
Overview of reported IC50 across a group of molecules:
Respond numerically; units are µM and should not be typed.

# Molecule, Measured target, Units, IC50
measured = [
    ("Fc1ccc2[nH]cc(C3=CCN(CC4COc5ccc6[nH]c(C(F)(F)F)nc6c5O4)CC3)c2c1 (centres unmarked)", "cloned human 5-HT1A receptors (Homo sapiens, UniProt P08908)", "µM", 0.0935),
    ("CCc1nc2c3c(ccc2[nH]1)OCC(CN1CC=C(c2c[nH]c4ccccc24)CC1)O3 (centres unmarked)", "cloned human 5-HT1A receptors (Homo sapiens, UniProt P08908)", "µM", 0.036),
    ("FC(F)(F)C(F)(F)c1nc2c3c(ccc2[nH]1)OCC(CN1CC=C(c2c[nH]c4ccccc24)CC1)O3 (centres unmarked)", "cloned human 5-HT1A receptors (Homo sapiens, UniProt P08908)", "µM", 0.0436),
    ("Cc1nc2ccc3c(c2n1C)OC(CN1CC=C(c2c[nH]c4ccccc24)CC1)CO3 (centres unmarked)", "cloned human 5-HT1A receptors (Homo sapiens, UniProt P08908)", "µM", 6.52),
    ("FC(F)(F)c1nc2c3c(ccc2[nH]1)OCC(CN1CC=C(c2c[nH]c4ccccc24)CC1)O3 (centres unmarked)", "cloned human 5-HT1A receptors (Homo sapiens, UniProt P08908)", "µM", 0.029),
]

I'd like to know its IC50. The molecule in question is Cc1nc2c3c(ccc2[nH]1)OCC(CN1CC=C(c2c[nH]c4ccccc24)CC1)O3 (centres unmarked) 0.01

Using the record for Fc1cccc2c(C3=CCN(CC4COc5ccc6[nH]c(C(F)(F)F)nc6c5O4)CC3)c[nH]c12 (centres unmarked) , report its IC50. 0.0274

// returns reported IC50 for input Fc1ccc2c(C3=CCN(CC4COc5ccc6[nH]c(C(F)(F)F)nc6c5O4)CC3)c[nH]c2c1 (centres unmarked) 0.022

* * *

biological target: human 5-HT1A receptors (Homo sapiens, UniProt P08908); construct: expressed in transfected cells; host or cells: CHO cells, stably transfected; assay: [3H] 8-OHDPAT displacement from the 5-HT1A receptor (transfected CHO cells); type: binding; conditions: displacement of [3H] 8-OHDPAT, CHO cells stably transfected with human 5-HT1A receptors; read-out: 5-HT1A Receptor Affinity KI
Quantity measured: Ki

# Compound, Ki
measured = [
    ("FC(F)(F)C(F)(F)c1nc2c3c(ccc2[nH]1)OCC(CN1CC=C(c2c[nH]c4ccccc24)CC1)O3 (centres unmarked)", "1.88 nM"),
]

If you can, please state the reported Ki value of Cc1nc2ccc3c(c2n1C)OC(CN1CC=C(c2c[nH]c4ccccc24)CC1)CO3 (centres unmarked) . 52 nM
